Origin of values: the supplement of paper PMC10126150

# System: ATP;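 also: ATP exposure 15 min at 22 °C before imaging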
# measurement-description: switch fluorescence ratio, 500 uM ATP over buffer (Cy3 cluster intensity, sum of 5 cycles each) (fold (ratio)); higher = stronger signal-on switching upon ATP binding; sequences stand for … in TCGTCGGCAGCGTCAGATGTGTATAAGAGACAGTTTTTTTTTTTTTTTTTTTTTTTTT…TC
# settings: aptamer strand: ATP DNA aptamer (quencher-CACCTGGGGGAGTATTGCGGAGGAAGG + anchor), 100 nM annealed; ATP concentration: 500 uM
// switch fluorescence ratio lookup, one value per entry

# annotated cases, reported switch fluorescence ratio shown
[[record]]
entry_sequence = "AAACGCTGGT"
recorded_result = 1.01

[[record]]
entry_sequence = "CGCGGGAGGG"
recorded_result = 1.04

[[record]]
entry_sequence = "GGAGACTTTA"
recorded_result = 1.01

[[record]]
entry_sequence = "TGGTTTTCGT"
recorded_result = 1.01


# input Lab note: need switch fluorescence ratio for CTCTAGCCTC on ATP, anyone have it?
# output 1.18

# input Note, next up: AATGTGGGTC
# output 0.939
